Recorded pEC50 for the following molecules
EXPERIMENTAL TARGET: human β3 adrenergic receptor (Homo sapiens)
Construct: stably transfected with the cloned β-adrenergic receptor (β1, β2 or β3); expressed in transfected cells; host or cells: Chinese hamster ovary (CHO) cells, stably transfected
Sequence (P13945 whole entry): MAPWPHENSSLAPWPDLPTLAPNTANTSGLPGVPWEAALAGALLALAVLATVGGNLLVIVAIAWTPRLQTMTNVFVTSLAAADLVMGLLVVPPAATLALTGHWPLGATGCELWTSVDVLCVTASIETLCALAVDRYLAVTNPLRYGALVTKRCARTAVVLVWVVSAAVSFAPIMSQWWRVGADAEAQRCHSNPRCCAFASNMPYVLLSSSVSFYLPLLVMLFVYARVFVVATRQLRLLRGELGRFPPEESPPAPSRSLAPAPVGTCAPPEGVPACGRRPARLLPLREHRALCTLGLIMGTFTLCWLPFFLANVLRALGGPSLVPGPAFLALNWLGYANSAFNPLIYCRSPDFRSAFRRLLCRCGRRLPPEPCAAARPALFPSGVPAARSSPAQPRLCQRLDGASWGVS
ASSAY METHOD TEXT: Functional assay: cAMP production (LANCE TR-FRET) in CHO cells stably transfected with cloned β3 adrenergic receptor
Type: cell-based
TEST CONTEXT: Table 5; human β3 functional activity given as ranges; read-out: Human β3 functional
pEC50: −log10 of the molar value.

| MOLECULE | EXPERIMENTAL TARGET | pEC50 |
| --- | --- | --- |
| O=C(Nc1ccc(CC2CC[C@H]([C@H](O)c3cccnc3)N2)cc1Br)C1CCc2sc(I)nc21 (single isomer, unassigned) [Example 243] | human β3 adrenergic receptor (Homo sapiens) | 6.00 to 7.00 |
| O=C(Nc1ccc(CC2CC[C@H]([C@H](O)c3cccnc3)N2)cc1Br)C1CCc2sc(I)nc21 (single isomer, unassigned) [Example 244] | human β3 adrenergic receptor (Homo sapiens) | 7.00 to 7.96 |

Note: attention shifts to another entry.
### Prompt Using the record for Nc1nc(CC(=O)Nc2ccc(CC3CC[C@H]([C@H](O)c4cccnc4)N3)cc2Br)cs1 (stereo partly drawn) , state its measured pEC50.
### Response 6.00 to 7.00

* * *

EXPERIMENTAL TARGET: human β3 adrenergic receptor (Homo sapiens)
Construct: stably transfected with the cloned β-adrenergic receptor (β1, β2 or β3); expressed in transfected cells; host or cells: Chinese hamster ovary (CHO) cells, stably transfected
ASSAY METHOD TEXT: Functional assay: cAMP production (LANCE TR-FRET) in CHO cells stably transfected with cloned β3 adrenergic receptor
Type: cell-based
TEST CONTEXT: Table 3; cAMP production, CHO cells expressing human β3 AR; read-out: Human β3 functional
Recorded EC50 for the following compounds

Example entries and their recorded answers appear below.
| COMPOUND | EC50 |
| --- | --- |
| CCc1nc2c(s1)CCC2C(=O)Nc1ccc(CC2CC[C@H]([C@H](O)c3cccnc3)N2)cc1 (single isomer, unassigned) [Example 120] | 11 to 100 nM |
| CC(C(=O)Nc1ccc(CC2CC[C@H]([C@H](O)c3cccnc3)N2)cc1)c1nnn(C)n1 (single isomer, unassigned) [Example 181] | 11 to 100 nM |
| CC(C(=O)Nc1ccc(CC2CC[C@H]([C@H](O)c3cccnc3)N2)cc1)c1cnccn1 (single isomer, unassigned) [Example 145] | 1 to 10 nM |
| COCc1nc2c(s1)CCC2C(=O)Nc1ccc(CC2CC[C@H]([C@H](O)c3cccnc3)N2)cc1 (single isomer, unassigned) [Example 126] | 101 to 1000 nM |
| CCCC(C(=O)Nc1ccc(CC2CC[C@H]([C@H](O)c3cccnc3)N2)cc1)c1csc(N)n1 (single isomer, unassigned) [Example 108] | 1 to 10 nM |
| COCCC(C(=O)Nc1ccc(CC2CC[C@H]([C@H](O)c3cccnc3)N2)cc1)n1cccn1 (single isomer, unassigned) [Example 220] | 1 to 10 nM |

### Prompt Using the record for O=C(Nc1ccc(CC2CC[C@H]([C@H](O)c3cccnc3)N2)cc1)C1CCc2sc(C3CC3)nc21 (single isomer, unassigned) [Example 122] , state its measured EC50.
### Response 101 to 1000 nM

### Prompt Using the record for O=C(Nc1ccc(CC2CC[C@H]([C@H](O)c3cccnc3)N2)cc1)C1CCCc2ccnn21 (single isomer, unassigned) [Example 140] , state its measured EC50.
### Response 11 to 100 nM

### Prompt Using the record for CC(C(=O)Nc1ccc(CC2CC[C@H]([C@H](O)c3cccnc3)N2)cc1)c1ccn(C)n1 (single isomer, unassigned) [Example 214] , state its measured EC50.
### Response 11 to 100 nM

### Prompt Using the record for CC(C(=O)Nc1ccc(CC2CC[C@H]([C@H](O)c3cccnc3)N2)cc1)c1ccn(C)n1 (single isomer, unassigned) [Example 215] , state its measured EC50.
### Response 101 to 1000 nM

### Prompt Using the record for CC(C(=O)Nc1ccc(CC2CC[C@H]([C@H](O)c3cccnc3)N2)cc1)n1cc(C(=O)O)nn1 (single isomer, unassigned) [Example 199] , state its measured EC50.
### Response 11 to 100 nM

### Prompt Using the record for CC(C(=O)Nc1ccc(CC2CC[C@H]([C@H](O)c3cccnc3)N2)cc1)c1csc(N)n1 (single isomer, unassigned) [Example 105] , state its measured EC50.
### Response 1 to 10 nM
